Give measured NF-kB luciferase reporter activity for each item. Keep answers brief.
# Test system: HEK293 NF-kB-luciferase reporter cells
# ASSAY OVERVIEW: NF-kB luciferase reporter activity, robust Z-score vs plate median (robust Z-score (log luminescence)); higher = stronger NF-kB reporter activation
# COND: TNF 0 ng/mL; TNF treatment time 8.5 h; transfection time 72 h
// no unit, no text: just the number

Request the reported NF-kB luciferase reporter activity associated with `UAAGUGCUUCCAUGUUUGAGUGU`
-1.48

Then `GUGCCUACUGAGCUGAUAUCAGU` ?
-0.791

Then `CUGCAAAGGGAAGCCCUUUCU` ?
-0.197

Then `UAACAGUCUCCAGUCACGGCC` ?
-0.0296

Then `AACUGGCCUACAAAGUCCCAG` ?
0.721

Then `CUUUCAGUCGGAUGUUUACAGC` ?
-0.449

Then `UCUACAGUGCACGUGUCU` ?
-1.16

Then `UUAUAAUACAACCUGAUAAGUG` ?
-0.295

Then `UAAUACUGCCGGGUAAUGAUGG` ?
0.0214

Then `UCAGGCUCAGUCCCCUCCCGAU` ?
-0.315

Then `CUCUAGAGGGAAGCACUUUCUCU` ?
1.17

Then `CUCUAGAGGGAAGCGCUUUCUGUU` ?
1.69

Then `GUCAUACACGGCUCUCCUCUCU` ?
0.54

Then `CCUCUAGAUGGAAGCACUGUCU` ?
-0.0988

Then `AUCACACAAAGGCAACUUUUGU` ?
-0.634

Then `GCUGCGCUUGGAUUUCGUCCCC` ?
-0.0918

Then `AAAGUGCUUCUCUUUGGUGGGUU` ?
-1.14

Then `UAAGUGCUUCCAUGUUUUGGUGA` ?
-1.29

Then `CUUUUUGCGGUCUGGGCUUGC` ?
0.334

Then `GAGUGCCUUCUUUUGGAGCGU` ?
-0.314

Then `AAAAUGGUUCCCUUUAGAGUGUU` ?
-1.7

Then `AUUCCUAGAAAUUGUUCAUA` ?
0.0899

Then `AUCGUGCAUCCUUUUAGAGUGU` ?
4.81

Then `AAAGUGCUUCCUUUUAGAGGGUU` ?
-1.51

Then `AUCGGGAAUGUCGUGUCCGCC` ?
1.11

Then `UGUUUGCAGAGGAAACUGAGAC` ?
1.44

Then `AAGUGCUUCCUUUUAGAGGGUU` ?
-1.7

Then `UUGUACAUGGUAGGCUUUCAUU` ?
0.596

Then `CGAAUGUUGCUCGGUGAACCCCU` ?
-1.7

Then `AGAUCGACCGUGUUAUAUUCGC` ?
0.225

Then `AGGGCCCCCCCUCAAUCCUGU` ?
1.69

Then `AGGUUACCCGAGCAACUUUGCA` ?
0.305

Then `CUGGACUUAGGGUCAGAAGGCC` ?
0.0764

Then `UCUCCCAACCCUUGUACCAGUG` ?
0.0398

Then `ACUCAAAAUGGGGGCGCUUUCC` ?
-0.706

Then `AAAGUGCAUCCUUUUAGAGGUUU` ?
-0.831

Then `UGAGGUAGGAGGUUGUAUAGU` ?
-0.314

Then `UUAAGACUUGCAGUGAUGUUUAA` ?
-0.92

Then `UUCACAGGGAGGUGUCAUUUAU` ?
0.436

Then `AACGCACUUCCCUUUAGAGUGU` ?
0.317

Then `UCGGGGAUCAUCAUGUCACGAG` ?
1.13

Then `AUCCUUGCUAUCUGGGUGCUA` ?
-0.588

Then `UAAGGCACCCUUCUGAGUAGA` ?
-1.29

Then `UGAAGGUCUACUGUGUGCCAG` ?
-0.779

Then `CCACUGCCCCAGGUGCUGCUGG` ?
0.831

Then `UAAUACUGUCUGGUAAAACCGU` ?
-0.175

Then `AAAGCGCUUCCCUUUGCUGGA` ?
-0.603

Then `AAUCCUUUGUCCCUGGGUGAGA` ?
0.375

Then `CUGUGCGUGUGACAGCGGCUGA` ?
0.091

Then `UCUGCAAAGGGAAGCCCUUU` ?
0.625

Then `AAAGUGCUGCGACAUUUGAGCGU` ?
-0.434

Then `AAACCGUUACCAUUACUGAGUUU` ?
1.13

Then `UAGCACCAUCUGAAAUCGGUU` ?
0.81

Then `GAGGUUGUCCGUGGUGAGUUCG` ?
-0.468

Then `UGAUUGUAGCCUUUUGGAGUAGA` ?
-1.51

Then `CAGCAGCACACUGUGGUUUGU` ?
0.765

Then `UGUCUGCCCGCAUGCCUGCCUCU` ?
1.07

Then `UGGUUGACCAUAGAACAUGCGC` ?
-0.133

Then `CAGCAGCAAUUCAUGUUUUGAA` ?
1.16

Then `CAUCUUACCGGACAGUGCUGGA` ?
-1.28

Then `UACAGUAUAGAUGAUGUACUAG` ?
0.343

Then `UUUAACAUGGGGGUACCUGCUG` ?
-0.207
